- TARGET: T1, histidine-tagged human thymidylate synthase (ht-hTS) (human, UniProt P04818 1-313)
- T1 construct: also called human TS
- T1 sequence (P04818 other isoform, or with tags, fused parts or gaps limits assumed): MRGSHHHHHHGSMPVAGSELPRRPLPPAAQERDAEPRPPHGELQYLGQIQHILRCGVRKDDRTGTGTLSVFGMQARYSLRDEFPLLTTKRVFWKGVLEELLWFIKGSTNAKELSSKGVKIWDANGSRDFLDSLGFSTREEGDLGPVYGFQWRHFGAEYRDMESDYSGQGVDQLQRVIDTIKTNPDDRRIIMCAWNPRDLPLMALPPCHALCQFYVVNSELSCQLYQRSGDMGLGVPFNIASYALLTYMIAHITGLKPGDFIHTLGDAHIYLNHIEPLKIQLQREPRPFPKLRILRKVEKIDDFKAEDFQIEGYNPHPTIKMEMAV
- MEASUREMENT_PROTOCOL: hTS enzyme inhibition assay (peptide pre-incubated with hTS, then mTHF and dUMP, absorbance at 340 nm); second bar group
Can you tell me pIC50 for the items I'm about to list?
Numbers only, as −log10 of the molar value.

- BINDER: "DFIHTL (also called DFIHTL) [SEQ ID NO: 17]"
  pIC50: 3.08

Please find the next binder below.
Quick check: pIC50 of DFIHTLG (also called DFIHTLG) [SEQ ID NO: 16] ?
3.32

Values compiled from patent US20120302511A1.
